Molecular target: h-P2X7 (Homo sapiens, UniProt Q99572)
Sequence (Q99572 1-595): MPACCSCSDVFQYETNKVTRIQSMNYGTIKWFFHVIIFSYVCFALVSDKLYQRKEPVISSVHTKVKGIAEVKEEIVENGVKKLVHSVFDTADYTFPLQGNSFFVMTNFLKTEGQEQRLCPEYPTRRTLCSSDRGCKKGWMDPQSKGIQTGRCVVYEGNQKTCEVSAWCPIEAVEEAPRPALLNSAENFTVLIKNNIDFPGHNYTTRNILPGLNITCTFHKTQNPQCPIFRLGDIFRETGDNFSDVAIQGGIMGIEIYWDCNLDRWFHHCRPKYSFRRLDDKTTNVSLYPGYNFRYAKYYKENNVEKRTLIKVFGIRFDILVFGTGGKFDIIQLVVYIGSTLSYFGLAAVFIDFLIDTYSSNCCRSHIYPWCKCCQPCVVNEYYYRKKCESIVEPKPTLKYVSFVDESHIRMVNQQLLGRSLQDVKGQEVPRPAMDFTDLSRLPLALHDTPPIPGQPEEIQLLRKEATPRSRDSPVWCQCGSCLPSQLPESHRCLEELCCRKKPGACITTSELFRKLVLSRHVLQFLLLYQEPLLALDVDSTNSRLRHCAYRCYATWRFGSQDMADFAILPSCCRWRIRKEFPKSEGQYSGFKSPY
Test: Ca2+ flux assay h-P2X7
Conditions: read-out: h-P2X7 % Inhibition
EXPERIMENTAL ENDPOINT: inhibition at 50 µM (%)

Recorded inhibition at 50 µM, per entry:
1. COc1cccc(NC(=S)NC(=O)C23CC4CC(CC(C4)C2)C3)c1 : 15.1
2. Cc1cc(Br)ccc1NC(=S)NC(=O)C12CC3CC(CC(C3)C1)C2 : 18.8
3. O=C(NC(=S)Nc1cccc(O)c1)C12CC3CC(CC(C3)C1)C2 : 19.1

[I] CC(C)c1ccc(NC(=S)NC(=O)C23CC4CC(CC(C4)C2)C3)c(Br)c1
[II] O=C(NC(=S)Nc1cc(Br)ccc1Br)C12CC3CC(CC(C3)C1)C2
Lookup: I would appreciate it if you could say which entry, I or II , has the lower inhibition at 50 µM value. # answer = label of selected item
Found: II

[a] COc1ccc(NC(=S)NC(=O)C23CC4CC(CC(C4)C2)C3)cc1
[b] CN(C)CCCNC(=S)NC(=O)C12CC3CC(CC(C3)C1)C2
Lookup: In the pair a and b , the larger recorded inhibition at 50 µM belongs to which? # answer = label of selected item
Found: a
(a: 29.4%, b: 5.01%)

###

target: h-P2X7 (Homo sapiens); assay: Mode of receptor inhibition, BzATP dose-response curve at h-P2X7R; format: cell-based; design: expressed in transfected cells; host or cells: human 1321N1 astrocytoma cells; settings: BzATP without inhibitor; read-out: EC50 of BzATP induced response
EXPERIMENTAL ENDPOINT: EC50 (µM)
Could you give me the number in µM? Just the number is fine.

Lookup: Which EC50 reading was recorded for the compound Nc1ncnc2c1ncn2[C@@H]1O[C@H](COP(=O)(O)OP(=O)(O)OP(=O)(O)O)[C@@H](OC(=O)c2ccc(C(=O)c3ccccc3)cc2)[C@H]1O [BzATP, reference compound] ?
Found: 7.09

###

biological target: h-P2X7 (Homo sapiens, UniProt Q99572); assay: Ca2+ flux assay h-P2X7; conditions: read-out: h-P2X7 IC50 ± SEM; Ca2+ flux, n = 3
pIC50: −log10 of the molar value.
EXPERIMENTAL ENDPOINT: pIC50

Recorded pIC50, per entry:
1. O=C(NC(=S)Nc1cccnc1Cl)C12CC3CC(CC(C3)C1)C2 [If] : 7.00
2. O=C(NC(=S)Nc1cccc2cccnc12)C12CC3CC(CC(C3)C1)C2 [Io] : 7.14
3. COc1ccc(NC(=S)NC(=O)C23CC4CC(CC(C4)C2)C3)cc1OC [Ik] : 5.31
4. O=C(NC(=S)Nc1ccc(O)cc1)C12CC3CC(CC(C3)C1)C2 [Ic] : 5.86
5. Nc1c(S(=O)(=O)O)cc(Nc2ccc(Nc3nc(Cl)nc(Nc4cccc(S(=O)(=O)O)c4)n3)c(S(=O)(=O)O)c2)c2c1C(=O)c1ccccc1C2=O [Reactive Blue 2, reference compound] : 5.55

[A] O=C(NC(=S)Nc1cc([N+](=O)[O-])ccc1Cl)C12CC3CC(CC(C3)C1)C2 [Ih]
[B] O=C(NC(=S)Nc1ccccc1O)C12CC3CC(CC(C3)C1)C2 [Ia]
[C] O=C(NC(=S)Nc1ccc(Br)cc1)C12CC3CC(CC(C3)C1)C2 [Il]
Lookup: Order each entry by recorded pIC50, climbing from the minimum. Would you mind listing the labels in the order asked for?
Found: C, A, B

Data provenance is patent US20230141034A1.
